test: pH-Solubility Profile in buffers and simulated intestinal fluids; assay type: physicochemical; conditions: simulated gastric fluid; pH 1.2 HCl (aq); pH of solution 1.2; read-out: pH-Solubility Profile, Concentration
experimental readout: solubility (µg/mL)
Respond numerically; units are µg/mL and should not be typed.

Looking up N#Cc1ccc(O[C@H]2CC[C@H](NC(=O)c3ccc(N4CCC(CN5CCN(c6cc7c(cc6F)C(=O)N(C6CCC(=O)NC6=O)C7=O)CC5)CC4)nn3)CC2)cc1Cl (stereo partly shown) [Compound A] , I see its solubility listed as 397

###

experiment: Solubility of Compound A in solvents at 24° C. ± 3° C., 24 h; type: physicochemical; settings: organic solvent or mixture, thermodynamic from solid, Polyethylene glycol-300, read-out: Solubility, Conc. (mg/mL), 24 h
experimental readout: solubility at 24 h
Write down the value, and be sure its unit follows.

Looking up N#Cc1ccc(O[C@H]2CC[C@H](NC(=O)c3ccc(N4CCC(CN5CCN(c6cc7c(cc6F)C(=O)N(C6CCC(=O)NC6=O)C7=O)CC5)CC4)nn3)CC2)cc1Cl (stereo partly shown) [Compound A] , I see its solubility at 24 h listed as 2.8 mg/mL

The reported numbers originate from patent US12043612B2.
